system: M550I HBV baculovirus; experiment: Antiviral testing with M550I HBV baculovirus in HepG2 cells (Example 15); type: cell-based, Hepatitis B virus; details: Hepatitis B virus, HepG2; 550 (M550I) HBV; ds HBV DNA bands; extrapolated value; read-out: IC50 (μM), extrapolated value
MEASURED METRIC: IC50

Nc1nc2c(ncn2CCC(CO)CO)c(=O)[nH]1
1220 µM

----------
tested on: precore (G1896A) recombinant HBV-baculovirus; assay: Antiviral testing of the precore mutant (G1896A) HBV baculovirus in HepG2 cells (Example 17); format: cell-based, Hepatitis B virus; conditions: Hepatitis B virus, HepG2, Precore (G1896A); extracellular relaxed circular HBV DNA; averages where footnoted; read-out: IC50 (μM), EC RC
MEASURED METRIC: IC50 (µM)

Nc1ncnc2c1ncn2CCOCP(=O)(O)O [Adefovir, 9-(2-phosphonylmethoxyethyl)adenine]
0.025
Nc1nc2c(ncn2CCC(CO)CO)c(=O)[nH]1 [Penciclovir]
6

----------
system: precore (G1896A) recombinant HBV-baculovirus; assay: Antiviral testing of the precore mutant (G1896A) HBV baculovirus in HepG2 cells (Example 17); type: cell-based, Hepatitis B virus; settings: Hepatitis B virus, HepG2, read-out: IC50 (μM), IC SS, Precore (G1896A); intracellular single-stranded HBV DNA; averages where footnoted
MEASURED METRIC: IC50 (µM)

Nc1ccn([C@@H]2CS[C@H](CO)O2)c(=O)n1 [Lamivudine, (−)-b-L-2′,3′-dideoxy-3′-thiacytidine]
0.0207

----------
test system: wild-type (WT) recombinant HBV-baculovirus; test: Antiviral testing, wild-type (1.3x genomic length) recombinant HBV-baculovirus in HepG2 cells (Example 17); type: cell-based, Hepatitis B virus; details: Hepatitis B virus, HepG2, WT; intracellular single-stranded HBV DNA; averages where footnoted; read-out: IC50 (μM), IC SS
MEASURED METRIC: IC50 (µM)

Nc1nc2c(ncn2CCC(CO)CO)c(=O)[nH]1
226
Nc1ncnc2c1ncn2CCOCP(=O)(O)O
0.235

----------
Measured IC50 values are reported for all entries that follow.
test system: L526M/M550V HBV baculovirus; assay: Antiviral testing with L526M/M550V HBV baculovirus in HepG2 cells (Example 15); type: cell-based, Hepatitis B virus; conditions: Hepatitis B virus; dual (L526M/M550V) HBV; ds HBV DNA bands, HepG2 cells
MEASURED METRIC: IC50

Nc1ncnc2c1ncn2CCOCP(=O)(O)O
0.16 µM
Nc1ccn([C@@H]2CS[C@H](CO)O2)c(=O)n1 [Lamivudine, (−)-b-L-2′,3′-dideoxy-3′-thiacytidine]
86.2 µM
Nc1nc2c(ncn2CCC(CO)CO)c(=O)[nH]1
370 µM

----------
test system: Precore/L526M/M550V recombinant HBV-baculovirus; experiment: Antiviral testing, Precore/L526M/M550V recombinant HBV-baculovirus in HepG2 cells (Example 17); type: cell-based, Hepatitis B virus; conditions: Hepatitis B virus, HepG2, extracellular relaxed circular HBV DNA, NDR = no dose response, read-out: IC50 (μM), EC RC
MEASURED METRIC: IC50 (µM)

Nc1ncnc2c1ncn2CCOCP(=O)(O)O [Adefovir, 9-(2-phosphonylmethoxyethyl)adenine]
1

----------
test system: M550I HBV baculovirus; experiment: Antiviral testing with M550I HBV baculovirus in HepG2 cells (Example 15); type: cell-based, Hepatitis B virus; conditions: Hepatitis B virus; 550 (M550I) HBV; ds HBV DNA bands, HepG2 cells; read-out: IC50
MEASURED METRIC: IC50

Nc1ccn([C@@H]2CS[C@H](CO)O2)c(=O)n1 [Lamivudine, (−)-b-L-2′,3′-dideoxy-3′-thiacytidine]
3.8 µM
Nc1ncnc2c1ncn2CCOCP(=O)(O)O
0.31 µM

----------
tested on: Precore/L526M/M550V recombinant HBV-baculovirus; test: Antiviral testing, Precore/L526M/M550V recombinant HBV-baculovirus in HepG2 cells (Example 17); format: cell-based, Hepatitis B virus; details: Hepatitis B virus, HepG2, intracellular single-stranded HBV DNA, NDR = no dose response, read-out: IC50 (μM), IC SS
MEASURED METRIC: IC50 (µM)

Nc1ncnc2c1ncn2CCOCP(=O)(O)O
0.47

----------
tested on: wild-type (WT) recombinant HBV-baculovirus; experiment: Antiviral testing, wild-type (1.3x genomic length) recombinant HBV-baculovirus in HepG2 cells (Example 17); format: cell-based, Hepatitis B virus; conditions: Hepatitis B virus, HepG2, WT; extracellular relaxed circular HBV DNA; individual experiments behind the average; read-out: IC50, single experiments, EC RC
pIC50: −log10 of the molar value.
MEASURED METRIC: pIC50

Nc1ncnc2c1ncn2CCOCP(=O)(O)O
7.22

----------
tested on: wild-type HBV baculovirus; assay: Antiviral testing with wild-type HBV baculovirus in HepG2 cells (Example 15, Southern blot densitometry); format: cell-based, Hepatitis B virus; settings: Hepatitis B virus; wt HBV; ds HBV DNA bands, HepG2 cells
Measured IC50 values are reported for all entries that follow.
MEASURED METRIC: IC50

Nc1ncnc2c1ncn2CCOCP(=O)(O)O [Adefovir, 9-(2-phosphonylmethoxyethyl)adenine]
0.08 µM
Nc1ccn([C@@H]2CS[C@H](CO)O2)c(=O)n1 [Lamivudine, (−)-b-L-2′,3′-dideoxy-3′-thiacytidine]
0.009 µM
Nc1nc2c(ncn2CCC(CO)CO)c(=O)[nH]1 [Penciclovir]
11.5 µM
